# assay comment: Pharmacokinetics in rat hepatic portal and tail veins after oral administration
# Format: in vivo
# experimental context: tail vein (systemic) plasma, po, 1 mg/kg, read-out: Tail vein Prodrug AUC
experimental readout: AUC (ng·h/mL)
API: value field is a number in ng·h/mL; no unit string.

* CC(C)[C@@H](N)C(=O)N[C@@H](CCC(=O)NC(=N)NC(=O)Cc1c(Cl)cccc1Cl)C(=O)O | 4.6

Any idea what AUC was measured for `CNCC(=O)N[C@H](C(=O)O)[C@@H](C)OC(=O)NC(=N)NC(=O)Cc1c(Cl)cccc1Cl` ? 20.2

Repeat with `CNCC(=O)N[C@@H](COC(=O)NC(=N)NC(=O)Cc1c(Cl)cccc1Cl)C(=O)O` 5.09

Repeat with `C[C@@H](N)C(=O)N[C@@H](CCC(=O)NC(=N)NC(=O)Cc1c(Cl)cccc1Cl)C(=O)O` 8

Repeat with CC(C)[C@H](N)C(=O)NCCC(=O)NC(=N)NC(=O)Cc1c(Cl)cccc1Cl [Compound 2, Guanfacine (β-Alanine-(S)-Valine) Amide] 2.67

---

# assay comment: Prodrug stability in simulated intestinal fluid
# experimental context: 37° C., pH 6.8, HPLC
experimental readout: % prodrug remaining following incubation for 2 h in simulated intestinal fluid pH 6.8 (%)
API: value field is a number in %; no unit string.

Some entries whose results are on file:
• O=C1CCN=C(NC(=O)Cc2c(Cl)cccc2Cl)N1 [Compound 34, Guanfacine-β-Alanine Cyclic Adduct] = 91
• N=C(NC(=O)CC[C@H](NC(=O)[C@@H]1CCC(=O)N1)C(=O)O)NC(=O)Cc1c(Cl)cccc1Cl [Compound 6] = 98

Okay, now this compound:
Any idea what % prodrug remaining following incubation for 2 h in simulated intestinal fluid pH 6.8 was measured for CC(C)[C@@H](N)C(=O)NCCC(=O)NC(=N)NC(=O)Cc1c(Cl)cccc1Cl [Compound 11, Guanfacine (β-Alanine-(R)-Valine) Amide] ? 104

---

# assay comment: Prodrug stability in simulated intestinal fluid
# experimental context: 37° C., pH 6.8, HPLC
Threshold 90%. % prodrug remaining following incubation for 2 h in simulated intestinal fluid pH 6.8 below it: fulfilled. % prodrug remaining following incubation for 2 h in simulated intestinal fluid pH 6.8 at it or above: not fulfilled.

Would you please look over these solved cases?
* N=C(NC(=O)CCCNC(=O)CC[C@H](N)C(=O)O)NC(=O)Cc1c(Cl)cccc1Cl [Compound 57, Guanfacine (GABA-(S)-γ-Glutamate) Amide] | not fulfilled
* N=C(NC(=O)Cc1c(Cl)cccc1Cl)NC(=O)OCCNC(=O)CC[C@H](N)C(=O)O | not fulfilled
* N=C(NC(=O)CC[C@H](NC(=O)c1ccc(N)cc1)C(=O)O)NC(=O)Cc1c(Cl)cccc1Cl [Compound 70, Guanfacine ((S)-γ-Glutamate-PABA) Amide] | not fulfilled
* C[C@@H](N)C(=O)N[C@@H](CCC(=O)NC(=N)NC(=O)Cc1c(Cl)cccc1Cl)C(=O)O | fulfilled
* N=C(NC(=O)CC[C@H](NC(=O)[C@H](N)CCC(N)=O)C(=O)O)NC(=O)Cc1c(Cl)cccc1Cl | fulfilled

Criterion: % prodrug remaining following incubation for 2 h in simulated intestinal fluid pH 6.8 strictly below 90%. Is it met by CC(=O)N[C@@H](COC(=O)NC(=N)NC(=O)Cc1c(Cl)cccc1Cl)C(=O)O [Compound 15, Guanfacine Acetyl-(S)-Serine Carbamate] ? not fulfilled

Repeat with N=C(NC(=O)Cc1c(Cl)cccc1Cl)NC(=O)OCC[C@H](N)C(=O)O [Compound 65, Guafacine (S)-Homoserine Carbamate] not fulfilled

Repeat with `CNCC(=O)N[C@H](C(=O)O)[C@@H](C)OC(=O)NC(=N)NC(=O)Cc1c(Cl)cccc1Cl` not fulfilled

Repeat with `CC(C)[C@H](NC(=O)COC(=O)NC(=N)NC(=O)Cc1c(Cl)cccc1Cl)C(=O)O` not fulfilled

---

# assay comment: Prodrug stability in simulated intestinal fluid
# experimental context: 37° C., pH 6.8, HPLC
experimental readout: % prodrug remaining following incubation for 2 h in simulated intestinal fluid pH 6.8 (%)
API: value field is a number in %; no unit string.

Some entries whose results are on file:
- CC(C)[C@@H](NC(=O)c1ccc(N)cc1)C(=O)NC(=N)NC(=O)Cc1c(Cl)cccc1Cl [Compound 55, Guanfacine ((R)-Valine-PABA) Amide]: 91
- CC(C)[C@@H](N)C(=O)N[C@@H](CCC(=O)NC(=N)NC(=O)Cc1c(Cl)cccc1Cl)C(=O)O: 89

Okay, now this molecule:
Any idea what % prodrug remaining following incubation for 2 h in simulated intestinal fluid pH 6.8 was measured for `N=C(NC(=O)CC[C@H](NC(=O)[C@H](N)Cc1ccc(O)cc1)C(=O)O)NC(=O)Cc1c(Cl)cccc1Cl` ? 91
